Biological target: cyclin D1-cdk4 (Homo sapiens, UniProt P11802)
Sequence (P11802 whole entry): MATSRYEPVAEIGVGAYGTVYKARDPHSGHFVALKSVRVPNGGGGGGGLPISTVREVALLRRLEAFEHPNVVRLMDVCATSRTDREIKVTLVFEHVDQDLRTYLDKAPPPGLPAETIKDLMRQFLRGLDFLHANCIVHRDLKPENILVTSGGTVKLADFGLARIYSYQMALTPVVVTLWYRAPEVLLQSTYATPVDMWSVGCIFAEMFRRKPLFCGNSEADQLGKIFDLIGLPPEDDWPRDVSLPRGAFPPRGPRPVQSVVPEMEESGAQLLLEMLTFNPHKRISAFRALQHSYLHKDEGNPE
Sequence (P24385 whole entry partner): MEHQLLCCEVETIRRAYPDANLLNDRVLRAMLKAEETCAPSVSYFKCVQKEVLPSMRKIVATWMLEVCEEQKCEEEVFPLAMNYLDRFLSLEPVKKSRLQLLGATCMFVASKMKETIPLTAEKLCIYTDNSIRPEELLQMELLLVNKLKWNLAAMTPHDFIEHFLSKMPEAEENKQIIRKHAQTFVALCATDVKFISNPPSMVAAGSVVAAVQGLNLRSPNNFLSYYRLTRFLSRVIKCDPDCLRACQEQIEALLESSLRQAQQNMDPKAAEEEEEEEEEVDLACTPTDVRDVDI
Test: Assay of Cyclin D1-cdk4 Kinase Activity with the ING Peptide as Substrate
Type: biochemical
Settings: ING peptide 200 uM as substrate, 300 uM ATP, 60 minutes at room temperature
pIC50: −log10 of the molar value.
Property name: pIC50

INSERT INTO assay_data (compound, assay_system, readout_value) VALUES
  ('CN1Cc2cccc3c(C4=C(c5c[nH]c6ccccc56)C(=O)NC4=O)cn(c23)C1', 'cyclin D1-cdk4 (Homo sapiens, UniProt P11802)', 6.34),
  ('O=C1NC(=O)c2c1c1c3ccc(CN4CCCC4)cc3[nH]c1c1c2c2cccc3c2n1CCC3 [drawing 220]', 'cyclin D1-cdk4 (Homo sapiens, UniProt P11802)', 7.29),
  ('O=C1NC(=O)c2c1c1c3ccccc3[nH]c1c1c2c2cccc3c2n1CCC3CO (stereo not drawn)', 'cyclin D1-cdk4 (Homo sapiens, UniProt P11802)', 7.19),
  ('CC1(C)CCn2cc(C3=C(c4c[nH]c5ccccc45)C(=O)NC3=O)c3cc(F)cc1c32', 'cyclin D1-cdk4 (Homo sapiens, UniProt P11802)', 5.81),
  ('O=C1NC(=O)c2c1c1c3ccccc3[nH]c1c1c2c2cccc3c2n1C(CO)CC3 (stereo not drawn)', 'cyclin D1-cdk4 (Homo sapiens, UniProt P11802)', 7.10),
  ('O=C1NC(=O)c2c1c1c3ccccc3[nH]c1c1c2c2cccc3c2n1CCC3 [drawing 212]', 'cyclin D1-cdk4 (Homo sapiens, UniProt P11802)', 6.98),
  ('O=C1NC(=O)C(c2cn3c4c(cccc24)CCC3)=C1c1c[nH]c2ccccc12 [drawing 222]', 'cyclin D1-cdk4 (Homo sapiens, UniProt P11802)', 6.10),
  ('O=C1NC(=O)C(c2cn3c4c(cccc24)CC(CO)C3)=C1c1c[nH]c2ccccc12 (stereo not drawn) [drawing 223]', 'cyclin D1-cdk4 (Homo sapiens, UniProt P11802)', 6.44),
  ('CN1Cc2cccc3c4c5c(c6c7ccccc7[nH]c6c4n(c23)C1)C(=O)NC5=O [drawing 221]', 'cyclin D1-cdk4 (Homo sapiens, UniProt P11802)', 7.43);
